The values you see were collected from patent US20240209076A1.

# Tested target: T1, human IL-6 (human, UniProt P05231 30-212)
# T1 construct: IL-6 flowed over captured antibodies
# T1 sequence (P05231 30-212 limits assumed): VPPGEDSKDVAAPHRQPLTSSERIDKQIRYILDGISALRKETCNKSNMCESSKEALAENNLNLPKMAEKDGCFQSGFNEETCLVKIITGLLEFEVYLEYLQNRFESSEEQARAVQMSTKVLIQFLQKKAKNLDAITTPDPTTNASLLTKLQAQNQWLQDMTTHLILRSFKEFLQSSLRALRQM
# Assay name: SPR Biacore, supernatant Ab on Protein A chip, 37 C
Below, each of the binders is paired with its reported koff value.
Report the figure in s⁻¹ without appending any unit label.

Would you please look over these solved cases?
{"columns": ["Binder", "koff [s⁻¹]"],
 "data": [
  ["anti-IL-6 antibody, heavy chain I51Y, G66D / light chain M32L, M50D, N52S, M88Q (antibody, IgG1, V domains shown, Full IgG1 (Expi293); VL = variant III) VH: EVQLVESGGGLVQPGGSLRLSCAASGFTFSPFAMSWVRQAPGKGLEWVAKYSPGGSWTYYSDTVTDRFTFSLDTSKSTAYLQMNSLRAEDTAVYYCARQLWGYYALDIWGQGTLVTVSS VL: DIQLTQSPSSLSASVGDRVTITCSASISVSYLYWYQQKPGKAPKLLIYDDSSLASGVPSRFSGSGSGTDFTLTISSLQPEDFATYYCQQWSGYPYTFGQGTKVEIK", 0.0247],
  ["anti-IL-6 antibody, heavy chain T65F, G66D / light chain M32L, M50D, N52S, M88Q (antibody, IgG1, V domains shown, Full IgG1 (Expi293); VL = variant III) VH: EVQLVESGGGLVQPGGSLRLSCAASGFTFSPFAMSWVRQAPGKGLEWVAKISPGGSWTYYSDTVFDRFTFSLDTSKSTAYLQMNSLRAEDTAVYYCARQLWGYYALDIWGQGTLVTVSS VL: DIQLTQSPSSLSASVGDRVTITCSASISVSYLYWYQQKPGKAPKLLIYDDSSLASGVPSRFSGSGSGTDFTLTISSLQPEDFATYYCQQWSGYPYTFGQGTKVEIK", 0.000391]
]}

Task: Requested read-out: koff. Entry: anti-IL-6 antibody, heavy chain T65S, G66D / light chain M32L, M50D, N52S, M88Q (antibody, IgG1, V domains shown, Full IgG1 (Expi293); VL = variant III) VH: EVQLVESGGGLVQPGGSLRLSCAASGFTFSPFAMSWVRQAPGKGLEWVAKISPGGSWTYYSDTVSDRFTFSLDTSKSTAYLQMNSLRAEDTAVYYCARQLWGYYALDIWGQGTLVTVSS VL: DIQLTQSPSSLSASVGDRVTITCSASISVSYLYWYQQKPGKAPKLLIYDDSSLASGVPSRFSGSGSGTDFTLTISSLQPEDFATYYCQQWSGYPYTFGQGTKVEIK
Output: 0.000441

Task: // returns reported koff for input anti-IL-6 antibody, heavy chain I51W, G66D / light chain M32L, M50D, N52S, M88Q (antibody, IgG1, V domains shown, Full IgG1 (Expi293); VL = variant III) VH: EVQLVESGGGLVQPGGSLRLSCAASGFTFSPFAMSWVRQAPGKGLEWVAKWSPGGSWTYYSDTVTDRFTFSLDTSKSTAYLQMNSLRAEDTAVYYCARQLWGYYALDIWGQGTLVTVSS VL: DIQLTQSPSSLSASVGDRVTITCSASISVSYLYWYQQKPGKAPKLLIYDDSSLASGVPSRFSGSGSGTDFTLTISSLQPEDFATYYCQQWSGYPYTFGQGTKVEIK
Output: 0.00383

Task: I am curious: what koff value has been reported for anti-IL-6 antibody, heavy chain I51H, G66D / light chain M32L, M50D, N52S, M88Q (antibody, IgG1, V domains shown, Full IgG1 (Expi293); VL = variant III) VH: EVQLVESGGGLVQPGGSLRLSCAASGFTFSPFAMSWVRQAPGKGLEWVAKHSPGGSWTYYSDTVTDRFTFSLDTSKSTAYLQMNSLRAEDTAVYYCARQLWGYYALDIWGQGTLVTVSS VL: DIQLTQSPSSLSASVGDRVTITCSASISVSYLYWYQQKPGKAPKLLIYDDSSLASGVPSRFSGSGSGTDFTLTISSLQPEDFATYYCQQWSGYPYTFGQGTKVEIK ?
Output: 0.00104

Task: Any idea what koff was measured for anti-IL-6 antibody, heavy chain I51K, G66D / light chain M32L, M50D, N52S, M88Q (antibody, IgG1, V domains shown, Full IgG1 (Expi293); VL = variant III) VH: EVQLVESGGGLVQPGGSLRLSCAASGFTFSPFAMSWVRQAPGKGLEWVAKKSPGGSWTYYSDTVTDRFTFSLDTSKSTAYLQMNSLRAEDTAVYYCARQLWGYYALDIWGQGTLVTVSS VL: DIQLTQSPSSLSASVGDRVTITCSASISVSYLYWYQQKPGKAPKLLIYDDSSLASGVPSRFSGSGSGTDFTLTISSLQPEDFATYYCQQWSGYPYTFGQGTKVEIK ?
Output: 0.000601

Task: I would be grateful if you could share the reported koff for anti-IL-6 antibody, heavy chain T63I, G66D / light chain M32L, M50D, N52S, M88Q (antibody, IgG1, V domains shown, Full IgG1 (Expi293); VL = variant III) VH: EVQLVESGGGLVQPGGSLRLSCAASGFTFSPFAMSWVRQAPGKGLEWVAKISPGGSWTYYSDIVTDRFTFSLDTSKSTAYLQMNSLRAEDTAVYYCARQLWGYYALDIWGQGTLVTVSS VL: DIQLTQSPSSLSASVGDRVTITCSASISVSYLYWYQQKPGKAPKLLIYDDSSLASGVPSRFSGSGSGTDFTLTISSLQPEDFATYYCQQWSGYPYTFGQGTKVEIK .
Output: 0.000446

Task: For anti-IL-6 antibody, heavy chain I51F, G66D / light chain M32L, M50D, N52S, M88Q (antibody, IgG1, V domains shown, Full IgG1 (Expi293); VL = variant III) VH: EVQLVESGGGLVQPGGSLRLSCAASGFTFSPFAMSWVRQAPGKGLEWVAKFSPGGSWTYYSDTVTDRFTFSLDTSKSTAYLQMNSLRAEDTAVYYCARQLWGYYALDIWGQGTLVTVSS VL: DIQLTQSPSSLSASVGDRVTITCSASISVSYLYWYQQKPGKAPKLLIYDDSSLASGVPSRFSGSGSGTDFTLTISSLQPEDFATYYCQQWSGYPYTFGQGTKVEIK , what is its reported koff?
Output: 0.00611

Task: Form field: reported koff of anti-IL-6 antibody, heavy chain I51L, G66D / light chain M32L, M50D, N52S, M88Q (antibody, IgG1, V domains shown, Full IgG1 (Expi293); VL = variant III) VH: EVQLVESGGGLVQPGGSLRLSCAASGFTFSPFAMSWVRQAPGKGLEWVAKLSPGGSWTYYSDTVTDRFTFSLDTSKSTAYLQMNSLRAEDTAVYYCARQLWGYYALDIWGQGTLVTVSS VL: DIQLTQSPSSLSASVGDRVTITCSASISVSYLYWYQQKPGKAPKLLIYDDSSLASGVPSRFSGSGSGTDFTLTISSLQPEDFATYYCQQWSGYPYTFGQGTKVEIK
Output: 0.00161

Task: Tell me the measured koff of anti-IL-6 antibody, heavy chain T65G, G66D / light chain M32L, M50D, N52S, M88Q (antibody, IgG1, V domains shown, Full IgG1 (Expi293); VL = variant III) VH: EVQLVESGGGLVQPGGSLRLSCAASGFTFSPFAMSWVRQAPGKGLEWVAKISPGGSWTYYSDTVGDRFTFSLDTSKSTAYLQMNSLRAEDTAVYYCARQLWGYYALDIWGQGTLVTVSS VL: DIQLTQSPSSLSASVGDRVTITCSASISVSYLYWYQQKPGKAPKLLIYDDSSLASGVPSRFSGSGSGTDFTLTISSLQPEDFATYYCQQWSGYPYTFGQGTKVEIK , please.
Output: 0.000477
